Data credit: PubChem BioAssay (EPA / NIEHS)

- studyTarget: Estrogen receptor (Homo sapiens) (UniProt P03372)
- Sequence (P03372 whole entry, looked up): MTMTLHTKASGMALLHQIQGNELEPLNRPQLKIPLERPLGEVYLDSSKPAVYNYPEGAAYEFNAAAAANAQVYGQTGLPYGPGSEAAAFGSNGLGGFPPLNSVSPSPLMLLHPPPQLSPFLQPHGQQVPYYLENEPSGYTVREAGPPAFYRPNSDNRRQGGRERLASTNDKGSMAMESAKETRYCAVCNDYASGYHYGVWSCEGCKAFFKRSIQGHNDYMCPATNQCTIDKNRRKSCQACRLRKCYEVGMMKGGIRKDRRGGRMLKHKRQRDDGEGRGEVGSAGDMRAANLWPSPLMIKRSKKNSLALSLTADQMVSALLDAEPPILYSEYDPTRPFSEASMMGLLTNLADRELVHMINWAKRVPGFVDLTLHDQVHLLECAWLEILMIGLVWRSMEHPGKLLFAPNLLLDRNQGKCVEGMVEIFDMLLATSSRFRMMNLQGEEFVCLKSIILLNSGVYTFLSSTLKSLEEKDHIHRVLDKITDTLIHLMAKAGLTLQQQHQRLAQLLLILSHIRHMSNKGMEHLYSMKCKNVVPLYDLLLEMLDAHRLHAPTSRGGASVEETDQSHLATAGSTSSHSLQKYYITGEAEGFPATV
- testSummary: CCTE_Deisenroth_AIME_384WELL_LUC_Inactive: CCTE's 384-well Estrogen Receptor Transactivation Assay without AIME metabolic competence (ERTA luciferase; metabolism negative), Deisenroth Lab (AID 2284038);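 also: VM7Luc4E2 breast cells given medium preincubated 2 h with S9-free microspheres; hits raise estrogen receptor luciferase signal so potencies reflect agonists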
Inconclusive results are not listed. Activity calls are given as the source filed them. The calls were made as follows: active = hit-call score of the fitted dose curve at least 0.9, where 1 is the maximum; inconclusive = response in the unintended direction; inactive = score below 0.9.
reportedEndpoint: outcome

# example entries with known answers
Reported Estrogen receptor (Homo sapiens) (UniProt P03372) outcome for item CCN(CC)C(=O)c1cccc(C)c1 was inactive

# value of outcome, Estrogen receptor (Homo sapiens) (UniProt P03372), item CSC(=O)c1cccc2nnsc12 = inactive

# CCSC(=O)N(CC(C)C)CC(C)C with Estrogen receptor (Homo sapiens) (UniProt P03372): outcome is inactive

Estrogen receptor (Homo sapiens) (UniProt P03372) data for CCOC(=O)COc1cc(-n2ncc(C(F)(F)F)c(C)c2=O)c(F)cc1Cl ; its outcome: inactive

Item: C[C@]12C[C@H](O)[C@H]3[C@@H](CCC4=CC(=O)CC[C@@]43C)[C@@H]1CC[C@@H]2C(=O)CO | System: Estrogen receptor (Homo sapiens) (UniProt P03372) | outcome: inactive

---
Bench note, Estrogen receptor (Homo sapiens) (UniProt P03372): entry CCCCOC(=O)C(C)Oc1ccc(Oc2ccc(C(F)(F)F)cn2)cc1 (centres undefined) , its outcome = inactive

The observed outcome for COc1c(Cl)ccc(Cl)c1C(=O)O when tested with Estrogen receptor (Homo sapiens) (UniProt P03372) stands at inactive

Item O=C(O)c1ccccc1 ; assay system Estrogen receptor (Homo sapiens) (UniProt P03372); outcome reported as inactive

Entry CCCCOC(=O)[C@@H](C)Oc1ccc(Oc2ccc(C(F)(F)F)cn2)cc1 , Estrogen receptor (Homo sapiens) (UniProt P03372) data, outcome value: inactive
